Target: T1, 4H2621-AA
T1 chain: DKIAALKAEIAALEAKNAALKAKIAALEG
Experiment: two-hybrid library CCmax;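 further: natural log of median RNA to DNA barcode read ratio; higher means stronger binding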
Conditions: mean of both orientations
Measured interaction score accompanies every entry in the list below.
API doc: respond with a numeric literal and nothing else, no unit.

Check out these entries, answers already filled in.
Quick note, interaction score for DEIAALEAENAALEAEIAALEAKIAALEG [4H133-AA] landed at 0.704

Given item DKIAALKAEIAALEAENAALEAENAALKG [4H2580-AA] , the value recorded as its interaction score is -0.357

Recorded interaction score (binder DENAALEAKIAALKAKIAALEAKNAALKG [4H1384-AA] ): -0.862

Continuing:
Value of interaction score reported for the binder DENAALEAKIAALKAEIAALEAKIAALEG [4H1349-AA] is 2.18

Notebook: DENAALKAKIAALKAKNAALKAEIAALEG [4H1913-AA] , interaction score read as -0.536

The binder identified as DENAALKAEIAALEAKNAALKAEIAALEG [4H1593-AA] registered its interaction score at -0.899

Reported interaction score of DENAALEAKNAALEAKIAALKAKIAALKG [4H1454-AA] : -0.876

interaction score reading for DENAALEAEIAALEAEIAALKAKNAALKG [4H1040-AA] : -0.66
